Cited source: ChEMBL document CHEMBL1143198

experiment: Cmax in orally dosed dog; assay type: ADME, organism-based, Canis lupus familiaris; set-up: route oral; conditions: in vivo, po
quantity-name: Cmax (nM)
Report only the number, with the unit nM understood.

[Q] What value of measured Cmax is listed for NCc1ccc2c(c1)C1(CCN(C(=O)c3ccc(C#Cc4ccccc4)o3)CC1)CO2 ?
[A] 900

----------
experiment: Metabolic stability in human liver microsomes after 60 mins; assay type: ADME, Microsome; conditions: read-out: Stability
quantity-name: remaining at 1 h (%)
Report the figure in % without appending any unit label.

[Q] # get_value(readout='remaining at 1 h', item= NCc1ccc2c(c1)C1(CCN(C(=O)c3ccc(C#Cc4ccccc4)o3)CC1)CO2 )
[A] 100
